B1: NCF4 (parent)
chain: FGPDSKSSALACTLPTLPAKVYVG

# Variants of: B1
# assay_protocol: protein stability index of a GFP-peptide fusion (GPS, HEK-293T) (PSI 1-6); higher = more stable;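 further: lentivirally expressed fusions sorted by FACS into six bins by GFP to DsRed ratio, PSI derived from sequencing read proportions per bin multiplied by bin number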
# conditions: c terminus: a fixed tail appended
I would appreciate it if you labelled entries 1 when protein stability index is 2 or higher, otherwise -1.

T16N :: 1

Q: I'd appreciate it if you could say whether `T16S` has protein stability index at least equal to 2.
Result: 1

Q: I'd appreciate it if you could say whether `S7T` has protein stability index at least equal to 2.
Result: 1

Q: I'd appreciate it if you could say whether `V23M` has protein stability index at least equal to 2.
Result: 1

Q: I'd appreciate it if you could say whether `L10N` has protein stability index at least equal to 2.
Result: 1
